molecular target: CDK2 (Homo sapiens)
measurement.kind: pIC50
# pIC50 is unitless: minus log10 of the molar concentration; print number only

Example cases with answers are listed next.
[[record]]
structure = "O=C(Cc1cccc(Nc2nc(OCC3CCCCC3)c3nc[nH]c3n2)c1)NCCCn1ccnc1"
measured_value = 5.80

[[record]]
structure = "Nc1ccc(Nc2nc(OCC3CCCCC3)c3[nH]cnc3n2)cc1"
measured_value = 6.66

[[record]]
structure = "CCCNC(=O)Cc1cccc(Nc2nc(OCC3CCCCC3)c3nc[nH]c3n2)c1"
measured_value = 6.13


Kindly consider the entry below.
Enter reported pIC50 observed with CDK2 (Homo sapiens) for O=C(Cc1cccc(Nc2nc(OCC3CCCCC3)c3nc[nH]c3n2)c1)NC1CCCCC1
5.68

* * *

molecular target: Nek2 (Homo sapiens); construct: purchased Invitrogen; assay: Effect of pre-incubation of Nek2 with inhibitor on IC50 (time-dependence); type: biochemical; settings: 60 min after inhibitor addition
measurement.kind: IC50 (µM)
Give the value in µM but do not write µM after it.

Fill in: IC50 of CN(C)/C=C/c1nc(Nc2ccccc2)nc2[nH]cnc12 [Compound 70] is ___
1.47

* * *

biological target: Nek2 (Homo sapiens, UniProt P51955); construct: purchased Invitrogen; test: Nek2 Caliper kinase inhibition assay; assay type: biochemical; settings: @ 50 μM compound; 30 μM ATP
Sequence (P51955 whole entry): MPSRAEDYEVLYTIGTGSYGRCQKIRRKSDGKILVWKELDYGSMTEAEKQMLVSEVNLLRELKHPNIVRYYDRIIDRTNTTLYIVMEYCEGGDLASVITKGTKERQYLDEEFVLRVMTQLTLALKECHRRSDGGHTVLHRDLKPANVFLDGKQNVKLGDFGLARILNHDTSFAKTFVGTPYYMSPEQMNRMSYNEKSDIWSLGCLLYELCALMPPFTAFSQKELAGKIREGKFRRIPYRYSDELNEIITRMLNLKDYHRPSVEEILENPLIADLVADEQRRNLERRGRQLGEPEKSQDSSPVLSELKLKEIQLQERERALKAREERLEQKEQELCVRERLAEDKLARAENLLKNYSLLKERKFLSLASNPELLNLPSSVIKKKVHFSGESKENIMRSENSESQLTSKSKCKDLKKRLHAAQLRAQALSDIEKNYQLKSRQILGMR
measurement.kind: inhibition at 50 µM (%)
Respond with the bare value in %.

A selection of reference data follows.
[[record]]
structure = "CC(C)CNC(=O)Cc1cccc(Nc2nc(OCC3CCCCC3)c3nc[nH]c3n2)c1"
assayed_target = "Nek2 (Homo sapiens, UniProt P51955)"
measurement_kind = "inhibition at 50 µM"
measured_value = 79

[[record]]
structure = "CC(C)CCNC(=O)Cc1cccc(Nc2nc(OCC3CCCCC3)c3nc[nH]c3n2)c1"
assayed_target = "Nek2 (Homo sapiens, UniProt P51955)"
measurement_kind = "inhibition at 50 µM"
measured_value = 29

[[record]]
structure = "CN(C)S(=O)(=O)c1cccc(Nc2nc(OCC3CCCCC3)c3nc[nH]c3n2)c1"
assayed_target = "Nek2 (Homo sapiens, UniProt P51955)"
measurement_kind = "inhibition at 50 µM"
measured_value = 40

[[record]]
structure = "O=C(c1cccc(Nc2nc(OCC3CCCCC3)c3nc[nH]c3n2)c1)N1CCCCC1"
assayed_target = "Nek2 (Homo sapiens, UniProt P51955)"
measurement_kind = "inhibition at 50 µM"
measured_value = 57


Value lookup for inhibition at 50 µM; key = O=C(Nc1ccc(Nc2nc(OCC3CCCCC3)c3nc[nH]c3n2)cc1)c1ccccc1
36

Fill blank: measured inhibition at 50 µM of the compound O=S(=O)(Cc1cccc(Nc2nc(OCC3CCCCC3)c3nc[nH]c3n2)c1)N1CCCCC1 is ____.
53

Please give the measured inhibition at 50 µM for this compound: NS(=O)(=O)Cc1cccc(Nc2nc(OCC3CCCCC3)c3nc[nH]c3n2)c1
81

* * *

Overview of reported melting point across a group of compounds:

[[record]]
compound = "CCOc1nc(Nc2cccc(CC(=O)NCCCn3ccnc3)c2)nc2[nH]cnc12 [Compound 62]"
measured_value = "176 to 177 °C"

[[record]]
compound = "O=S(=O)(Cc1cccc(Nc2nc(OCC3CCCCC3)c3nc[nH]c3n2)c1)N1CCNCC1 [Compound 50]"
measured_value = "127 to 128 °C"


Look up melting point: O=C(Cc1cccc(Nc2nc(OCC3CCCCC3)c3nc[nH]c3n2)c1)NCCCc1ccccc1 [Compound 47]
154 to 155 °C

So what does the record say about melting point for O=C(NCCN1CCCCC1)Nc1ccc(Nc2ncc3nc[nH]c3n2)cc1 [Compound 65] ?
96 to 98 °C

Consider the compound shown here: CN(C)CCCCNC(=O)c1cccc(Nc2nc(OCC3CCCCC3)c3nc[nH]c3n2)c1 [Compound 33] What is its recorded melting point?
125 to 127 °C

// returns reported melting point for input O=C(Cc1cccc(Nc2nc(OCC3CCCCC3)c3nc[nH]c3n2)c1)NC1CCCC1 [Compound 35]
228 to 229 °C

Look up melting point: CCCNC(=O)Cc1cccc(Nc2nc(OCC3CCCCC3)c3nc[nH]c3n2)c1 [Compound 39]
141 to 142 °C (dec.)

Requested read-out: melting point. Entry: CN(C)C(=S)c1cccc(Nc2nc(OCC3CCCCC3)c3nc[nH]c3n2)c1 [Compound 12]
231 to 232 °C (dec.)

I am curious: what melting point value has been reported for CN1CCN(CCCNC(=O)Cc2cccc(Nc3nc(OCC4CCCCC4)c4nc[nH]c4n3)c2)CC1 [Compound 46] ?
157 to 158 °C

Need melting point, item CN(C)CCCNC(=O)Nc1ccc(Nc2nc(OCC3CCCCC3)c3nc[nH]c3n2)cc1 [Compound 18]
110 to 112 °C

Fill in: melting point of O=C(Cc1cccc(Nc2ncc3nc[nH]c3n2)c1)NCCCn1ccnc1 [Compound 67] is ___
121 to 122 °C

Please look up its melting point: CN(C)CCCNS(=O)(=O)Cc1cccc(Nc2nc(OCC3CCCCC3)c3nc[nH]c3n2)c1 [Compound 51]
167 to 168 °C

Dear colleague, I am looking for the recorded melting point of the following compound: C(=C\N1CCCC1)/c1nc(Nc2ccccc2)nc2[nH]cnc12 [Compound 69]
138 to 140 °C

* * *

target: Nek2 (Homo sapiens, UniProt P51955); construct: purchased Invitrogen; assay: Effect of pre-incubation of Nek2 with inhibitor on IC50 (time-dependence); assay type: biochemical; conditions: 2 min after inhibitor addition
measurement.kind: pIC50
Kindly note that pIC50 refers to -log10 of the concentration in mol/L and answer with the value alone.

Entry under review: CN(C)/C=C/c1nc(Nc2ccccc2)nc2[nH]cnc12 . Reported pIC50?
5.86

* * *

Reported melting point by item:

// known answers, use as guide
[[record]]
compound = "NC(=S)c1cccc(Nc2nc(OCC3CCCCC3)c3nc[nH]c3n2)c1"
measured_value = "148 to 149 °C (dec.)"

[[record]]
compound = "O=C(Nc1ccc(Nc2nc(OCC3CCCCC3)c3nc[nH]c3n2)cc1)c1ccncc1"
measured_value = "248 to 250 °C (dec.)"

[[record]]
compound = "O=C(c1cccc(Nc2nc(OCC3CCCCC3)c3nc[nH]c3n2)c1)N1CCCCC1"
measured_value = "133 to 135 °C"

[[record]]
compound = "O=[N+]([O-])c1ccc(Nc2nc(OCC3CCCCC3)c3nc[nH]c3n2)cc1"
measured_value = "180 to 181 °C"

[[record]]
compound = "CC(C)N(C(=O)Cc1cccc(Nc2nc(OCC3CCCCC3)c3nc[nH]c3n2)c1)C(C)C"
measured_value = "126 to 127 °C"


Reported melting point for O=[N+]([O-])c1cccc(Nc2nc(OCC3CCCCC3)c3nc[nH]c3n2)c1 : what is it?
217 to 218 °C

Which value of melting point has been reported for O=C(NCCN1CCOCC1)Nc1ccc(Nc2nc(OCC3CCCCC3)c3nc[nH]c3n2)cc1 in the records?
161 to 163 °C

Please look up its melting point: CN(C)/C=C/c1nc(Nc2ccccc2)nc2[nH]cnc12
129 to 131 °C

Name the reported melting point value associated with the compound CCOc1nc(Nc2cccc(CC(=O)NCCCN(C)C)c2)nc2[nH]cnc12
178 to 179 °C

// melting point lookup, key: CN(C(=O)Cc1cccc(Nc2nc(OCC3CCCCC3)c3nc[nH]c3n2)c1)C1CCCCC1
134 to 135 °C

* * *

target: Nek2 (Homo sapiens, UniProt P51955); construct: purchased Invitrogen; test: Nek2 Caliper kinase inhibition assay; format: biochemical; conditions: Caliper assay, 30 μM ATP
Recorded pIC50 values for a group of compounds are listed next.
On this scale, pIC50 is minus log10 of a concentration expressed in M (mol/L).

[[record]]
structure = "CNC(=O)c1cccc(Nc2nc(OCC3CCCCC3)c3nc[nH]c3n2)c1"
measurement_kind = "pIC50"
measured_value = 4.82


Please report the recorded pIC50 for CCOc1nc(Nc2cccc(CC(=O)NCCCn3ccnc3)c2)nc2[nH]cnc12 .
5.55

Quick check: pIC50 of CN(C)CCCNS(=O)(=O)Cc1cccc(Nc2nc(OCC3CCCCC3)c3nc[nH]c3n2)c1 ?
5.85

GET /values?readout=pIC50&item= CC(C)N(C(=O)Cc1cccc(Nc2nc(OCC3CCCCC3)c3nc[nH]c3n2)c1)C(C)C
4.68

What does the data say about its pIC50? Entry: Nc1cccc(Nc2nc(OCC3CCCCC3)c3[nH]cnc3n2)c1
5.23

Value lookup for pIC50; key = CN(C)/C=C/c1nc(Nc2ccccc2)nc2[nH]cnc12
6.11

Requested read-out: pIC50. Entry: CN1CCN(CCCNC(=O)Cc2cccc(Nc3nc(OCC4CCCCC4)c4nc[nH]c4n3)c2)CC1
5.44

Fill in the blank: the reported pIC50 of O=C(O)c1cccc(Nc2nc(OCC3CCCCC3)c3nc[nH]c3n2)c1 is ____.
5.37

pIC50 lookup needed for O=C(Cc1cccc(Nc2nc(OCC3CCCCC3)c3nc[nH]c3n2)c1)NC1CCCCC1 , thanks.
5.08
